target: GSK-3β (AA 1-420) (Homo sapiens, UniProt P49841); construct: GSK-3β (AA 1-420); test: Ki determination for the inhibition of GSK-3, standard coupled enzyme system; assay type: biochemical; details: 20 μM ATP, 300 μM peptide, 20 nM GSK-3β, 30° C.; read-out: Ki values for GSK-3
Sequence (P49841 whole entry, the tested form may be a part): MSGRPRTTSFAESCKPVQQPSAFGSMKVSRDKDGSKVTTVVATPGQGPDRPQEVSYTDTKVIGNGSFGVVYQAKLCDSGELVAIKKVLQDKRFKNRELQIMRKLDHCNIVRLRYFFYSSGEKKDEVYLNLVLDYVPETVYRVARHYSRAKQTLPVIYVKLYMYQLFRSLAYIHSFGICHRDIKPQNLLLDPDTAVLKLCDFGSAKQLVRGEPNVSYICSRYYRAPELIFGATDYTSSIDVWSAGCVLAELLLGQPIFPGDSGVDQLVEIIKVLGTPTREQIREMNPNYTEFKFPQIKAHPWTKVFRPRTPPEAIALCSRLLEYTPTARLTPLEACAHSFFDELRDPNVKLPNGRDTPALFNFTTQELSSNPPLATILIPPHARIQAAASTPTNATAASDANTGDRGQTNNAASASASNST
measurement type: Ki

Worked examples follow.
[
  {
    "compound": "COc1ccc(C2=NNC(=O)C2=NNc2cccc(C(F)(F)F)c2)cc1 [Compound 66]",
    "system under test": "GSK-3β (AA 1-420) (Homo sapiens, UniProt P49841)",
    "Ki": "< 100 nM"
  },
  {
    "compound": "COc1cccc(N/N=C2\\C(=O)NN=C2c2cccc(OC)c2)c1 [Compound 74]",
    "system under test": "GSK-3β (AA 1-420) (Homo sapiens, UniProt P49841)",
    "Ki": "< 100 nM"
  }
]

Exam item: Tell me Ki reported for COc1ccc(C2=NNC(=O)C2=NNc2ccc(-c3ccc(F)cc3)cc2)cc1 [Compound 82]
Marked response: < 100 nM

Exam item: Hello, please tell me recorded Ki for this one: CCn1c2ccccc2c2cc(NN=C3C(=O)NN=C3c3ccc(OC)c(OC)c3)ccc21 [Compound 218]
Marked response: < 100 nM

Exam item: Please report Ki for the following compound: COc1cccc(C2=NNC(=O)/C2=N\Nc2ccc(Cl)cc2)c1 [Compound 49]
Marked response: < 100 nM

Exam item: Give the reported Ki for this compound. COc1ccc(C2=NNC(=O)C2=NNc2ccc(C(F)(F)F)cc2)cc1OC [Compound 64]
Marked response: < 100 nM

Exam item: Provide Ki value for the following compound: O=C1NN=C(c2cccnc2)/C1=N/Nc1ccccc1Cl [Compound 15]
Marked response: 100 to 1000 nM

---

# pKi per record follows
molecular target: GSK-3β (AA 1-420) (Homo sapiens, UniProt P49841); construct: GSK-3β (AA 1-420); assay: Ki determination for the inhibition of GSK-3, standard coupled enzyme system; assay type: biochemical; settings: 20 μM ATP, 300 μM peptide, 20 nM GSK-3β, 30° C.; read-out: Ki values for GSK-3
pKi: −log10 of the molar value.

[
  {
    "compound": "COc1cccc(C2=NNC(=O)C2=NNc2ccc([N+](=O)[O-])cc2)c1 [Compound 78]",
    "system under test": "GSK-3β (AA 1-420) (Homo sapiens, UniProt P49841)",
    "measurement type": "pKi",
    "endpoint result": "> 7.00"
  },
  {
    "compound": "COc1cc(C2=NNC(=O)C2=CNc2cc(C)[nH]n2)cc(OC)c1OC [Compound 227]",
    "system under test": "GSK-3β (AA 1-420) (Homo sapiens, UniProt P49841)",
    "measurement type": "pKi",
    "endpoint result": "6.00 to 7.00"
  },
  {
    "compound": "COc1ccc(C2=NNC(=O)C2=NNc2ccc3c(c2)C(=O)c2ccccc2-3)cc1OC [Compound 207]",
    "system under test": "GSK-3β (AA 1-420) (Homo sapiens, UniProt P49841)",
    "measurement type": "pKi",
    "endpoint result": "> 7.00"
  },
  {
    "compound": "O=C1NN=C(c2ccc(N3CCOCC3)cc2)C1=NNc1cccc(-c2ccccc2)c1 [Compound 205]",
    "system under test": "GSK-3β (AA 1-420) (Homo sapiens, UniProt P49841)",
    "measurement type": "pKi",
    "endpoint result": "> 7.00"
  },
  {
    "compound": "COc1ccc(NN=C2C(=O)NN=C2c2cc(OC)c(OC)c(OC)c2)cc1N1CCOCC1 [Compound 124]",
    "system under test": "GSK-3β (AA 1-420) (Homo sapiens, UniProt P49841)",
    "measurement type": "pKi",
    "endpoint result": "> 7.00"
  },
  {
    "compound": "CCN(CC)c1ccc(NN=C2C(=O)NN=C2c2cc(OC)c(OC)c(OC)c2)cc1 [Compound 38]",
    "system under test": "GSK-3β (AA 1-420) (Homo sapiens, UniProt P49841)",
    "measurement type": "pKi",
    "endpoint result": "6.00 to 7.00"
  }
]

Exam item: Tell me pKi reported for COc1ccc(C2=NNC(=O)/C2=N\Nc2ccc(Cl)cc2)cc1 [Compound 43]
Marked response: > 7.00

Exam item: Determine its reported pKi: COc1cccc(C2=NNC(=O)/C2=N\Nc2cccc(Cl)c2)c1 [Compound 71]
Marked response: > 7.00

---

biological target: GSK-3β (AA 1-420) (Homo sapiens); construct: GSK-3β (AA 1-420); experiment: Ki determination for the inhibition of GSK-3, standard coupled enzyme system; type: biochemical; settings: 20 μM ATP, 300 μM peptide, 20 nM GSK-3β, 30° C.; read-out: Ki values for GSK-3
Ki reference

[
  {
    "molecular string": "COc1ccc(C2=NNC(=O)C2=CNc2ccc(Oc3ccccc3)cc2)cc1",
    "endpoint result": "100 to 1000 nM"
  }
]

Exam item: Recall and state the measured Ki for COc1cccc(C2=NNC(=O)/C2=N\Nc2ccc(N3CCOCC3)cc2)c1 .
Marked response: < 100 nM

Exam item: Given COc1ccc(C2=NNC(=O)/C2=N\Nc2ccc(N(C)C)cc2)cc1 , respond with its Ki.
Marked response: < 100 nM

Exam item: Answer with the recorded Ki for the molecule listed here: CCOc1cc(N2CCOCC2)c(OCC)cc1NN=C1C(=O)NN=C1c1ccc(OC)c(OC)c1
Marked response: 100 to 1000 nM

Exam item: Please report the measured Ki for COc1ccc(C2=NNC(=O)C2=CNc2cccc(OCc3ccccc3)c2)cc1OC
Marked response: 100 to 1000 nM

Exam item: Identify measured Ki associated with COc1ccc(C2=NNC(=O)/C2=N\Nc2ccc(C#N)cc2)cc1
Marked response: < 100 nM

Exam item: Quick one: give measured Ki for COc1ccc(C2=NNC(=O)C2=NNc2cccc(OC)c2)cc1
Marked response: < 100 nM

Exam item: Fill in Ki for record COc1ccc(N/N=C2\C(=O)NN=C2c2cc(OC)c(OC)c(OC)c2)cc1
Marked response: < 100 nM

Exam item: Check the records and state Ki for COc1ccc(NN=C2C(=O)NN=C2c2ccc(OC)cc2)cc1
Marked response: < 100 nM

Exam item: Look up and state reported Ki for COc1ccc(C2=NNC(=O)C2=NNc2ccc(OC)c(-c3ccccc3)c2)cc1
Marked response: < 100 nM

Exam item: Consider the molecule COc1ccc(C2=NNC(=O)C2=NNc2ccc(C(F)(F)F)cc2)cc1 . State its measured Ki.
Marked response: < 100 nM

Exam item: Indicate its recorded Ki; the molecule in question is CCN(CC)c1ccc(N/N=C2\C(=O)NN=C2c2ccc(OC)c(OC)c2)cc1
Marked response: < 100 nM

Exam item: Let me know recorded Ki for COc1cccc(C2=NNC(=O)/C2=N\Nc2ccc(N(C)C)cc2)c1 , thanks.
Marked response: < 100 nM

Exam item: State its Ki for this molecule: O=C1NN=C(c2ccccc2)/C1=N/Nc1ccc(Cl)cc1
Marked response: < 100 nM

Exam item: # return recorded Ki for entry COc1ccc(N/N=C2\C(=O)NN=C2c2ccncc2)cc1
Marked response: < 100 nM

Exam item: Identify Ki associated with the molecule COc1ccc(C2=NNC(=O)C2=NNc2ccc3c(c2)OCO3)cc1
Marked response: < 100 nM

Exam item: Return Ki for the following molecule: O=C1NN=C(c2cccnc2)C1=NNc1ccc(Cl)cc1
Marked response: < 100 nM

Exam item: Identify measured Ki corresponding to COc1ccc(C2=NNC(=O)C2=NNc2ccc(Oc3ccccc3)cc2)cc1
Marked response: < 100 nM

---

biological target: GSK-3β (AA 1-420) (Homo sapiens); construct: GSK-3β (AA 1-420); assay: Ki determination for the inhibition of GSK-3, standard coupled enzyme system; type: biochemical; conditions: 20 μM ATP, 300 μM peptide, 20 nM GSK-3β, 30° C.; read-out: Ki values for GSK-3
pKi: −log10 of the molar value.
The reader will find reported pKi values listed item by item below.

The examples below pair each entry with its known result.
[
  {
    "molecular string": "COc1ccc(NN=C2C(=O)NN=C2c2ccc3c(c2)OCO3)cc1",
    "system under test": "GSK-3β (AA 1-420) (Homo sapiens)",
    "endpoint result": "> 7.00"
  },
  {
    "molecular string": "COc1ccc(C2=NNC(=O)C2=NNc2ccc(Br)cc2)cc1",
    "system under test": "GSK-3β (AA 1-420) (Homo sapiens)",
    "endpoint result": "> 7.00"
  },
  {
    "molecular string": "COc1ccc(C2=NNC(=O)C2=NNc2cccc(-c3ccccc3)c2)cc1OC",
    "system under test": "GSK-3β (AA 1-420) (Homo sapiens)",
    "endpoint result": "> 7.00"
  }
]

Exam item: Supply pKi measured with GSK-3β (AA 1-420) (Homo sapiens) for COc1cccc(C2=NNC(=O)C2=NNc2ccc(Oc3ccccc3)cc2)c1 .
Marked response: > 7.00

Exam item: System GSK-3β (AA 1-420) (Homo sapiens). Read-out pKi. Item COc1cc(N2CCOCC2)ccc1NN=C1C(=O)NN=C1c1ccc(OC)c(OC)c1 . Report value.
Marked response: 6.00 to 7.00

Exam item: State pKi (GSK-3β (AA 1-420) (Homo sapiens)) of COc1ccc(C2=NNC(=O)C2=NNc2cccc(C(F)(F)F)c2)cc1OC .
Marked response: > 7.00

Exam item: Provide measured pKi on GSK-3β (AA 1-420) (Homo sapiens) for COc1cc(C2=NNC(=O)C2=NNc2ccc(OC)c(Br)c2)ccc1O please.
Marked response: > 7.00

Exam item: Report value: pKi, system: GSK-3β (AA 1-420) (Homo sapiens), molecule: COc1ccc(C2=NNC(=O)C2=NNc2ccc(OC)c(-c3cccnc3)c2)cc1OC
Marked response: > 7.00

Exam item: State pKi on GSK-3β (AA 1-420) (Homo sapiens). Entry: COc1ccc(C2=NNC(=O)/C2=N\Nc2ccc(N(C)C)cc2)cc1OC
Marked response: > 7.00

Exam item: With GSK-3β (AA 1-420) (Homo sapiens) as the test system, provide measured pKi for this molecule: CC1=NNC(=O)/C1=N\Nc1ccccc1Cl
Marked response: 6.00 to 7.00

Exam item: Specify pKi for O=C1NN=C(c2ccc3c(c2)OCO3)C1=NNc1ccc(Cl)cc1 , system GSK-3β (AA 1-420) (Homo sapiens).
Marked response: > 7.00
